Please provide measured % Inhibition for the entries that follow.
- Tested on: P. falciparum stage V gametocytes
- Set-up: BacTiter-Glo ATP luminescence viability of purified stage V gametocytes in 384-well plates, per cent inhibition versus DMSO
- setup-conditions: 48 h, 5 µM; inhibitor
Hit rate of the full screen: of about 13,000 compounds, about 3,200 (25%) showed an effect of 50% or more. Some of the results follow.
Field format: number, assumed %, no unit text.

The recorded % Inhibition for "COc1ccc(C2CCN(CCCNC(=O)c3ccc(NC(=O)c4ccc(Cl)cc4)cc3)CC2)c(OC)c1" is 4.031

The recorded % Inhibition for COc1ccc(C2CCN(CCCCNC(=O)c3ccc(NC(=O)c4ccc(Cl)cc4)cc3)C2)c(OC)c1 (stereo not shown) is 10.37

The recorded % Inhibition for "COc1ccc2nccc(N3CCC(CCNCc4ccc5c(n4)NC(=O)CO5)CC3)c2n1" is 5.733

The recorded % Inhibition for "Fc1ccc2nc(-c3cccc(-c4cccc(CN5CCN(c6cnccn6)CC5)c4)c3)[nH]c2c1" is -22.96

The recorded % Inhibition for COc1ccc2nccc(N3CCC(NCCNCc4ccc5c(n4)NC(=O)CO5)C3)c2n1 (stereo not shown) is 51.99

The recorded % Inhibition for COc1cccc(C2CCCN(CCCCNC(=O)c3ccc(NC(=O)c4ccc(Cl)cc4)cc3)C2)c1 (stereo not shown) is 16.5

The recorded % Inhibition for "CC(C)c1ccc(C2CCN(CCCCNC(=O)c3ccc(NC(=O)c4ccc(C(F)(F)F)cc4)cc3)CC2)c(O)c1" is 105.5

The recorded % Inhibition for COc1ccc2nccc(N3CCC(SCCNCc4ccc5c(n4)NC(=O)CS5)C3)c2n1 (stereo not shown) is -20.26

The recorded % Inhibition for N#Cc1cccc(/C=C/C(=O)NC2CCC(CCN3CCc4ccc(-c5cnccn5)cc4CC3)CC2)c1 (stereo not shown) is -55.93

The recorded % Inhibition for "CC(C)C[C@@H](/C=N/N1CCOC1=O)NC(=O)[C@H](CC(C)C)NC(=O)c1ccc(F)cc1" is -17.2

The recorded % Inhibition for "CC1(C)N=C(N)NC(NOCC=Cc2ccccc2)=N1" is -2.035

The recorded % Inhibition for "Cc1[nH]cc(Br)c(=O)c1-c1ccc(Oc2ccccc2)cc1" is 35.13

The recorded % Inhibition for "Cc1ccc(C2CCN(CCCCNC(=O)c3ccc(-c4ccc(C(F)(F)F)cc4)cc3)CC2)c(O)c1" is 45.11

The recorded % Inhibition for "COc1ccc2nccc(N3CCC(NCc4ccc5c(n4)NC(=O)CS5)CC3)c2n1" is 3.663

The recorded % Inhibition for "Cc1cccc2nc(-c3ccc(-c4ccc(CNCCCN5CCCC5=O)cc4)s3)[nH]c12.O=C(O)C(F)(F)F" is 11.61

The recorded % Inhibition for "O=C(NCCCCN1CCC(c2ccc(C(F)(F)F)cc2C(F)(F)F)CC1)c1ccc(NC(=O)c2ccc(Cl)cc2)cc1" is -51.81

====

- System: P. falciparum stage V gametocytes
- Parameters: BacTiter-Glo ATP luminescence viability of purified stage V gametocytes in 384-well plates, per cent inhibition versus DMSO
- setup-conditions: 48 h, 5 µM; inhibitor
Hit rate of the full screen: of about 13,000 compounds, about 3,200 (25%) showed an effect of 50% or more. Some of the results follow.
Please provide measured % Inhibition for the entries that follow.
Hey, just the number and the unit after it is fine.

The recorded % Inhibition for CN1c2ccc([N+](=O)[O-])cc2C(C)(C)C12C=Cc1cc(Br)cc([N+](=O)[O-])c1O2 (centres unmarked) [TCMDC-124178] is 98.03%

The recorded % Inhibition for O=C(Nc1cccc(CN2CCCN(Cc3ncc[nH]3)CC2)c1)c1ccc(Cl)c(Cl)c1 [TCMDC-141833] is -19.06%

The recorded % Inhibition for COc1cc2c(C3CCN(CC4CCC(NC(=O)/C=C/c5ccc(Cl)c(Cl)c5)CC4)CC3)c[nH]c2cn1 (centres unmarked) [TCMDC-140245] is 13.08%

The recorded % Inhibition for O=c1cc(NCCCNCc2cccc(OC(F)(F)F)c2)[nH]c2ccccc12 [TCMDC-139418] is 80.26%

The recorded % Inhibition for COC(=O)C1=CNC=C(C(=O)OC)C1c1ccc(Cl)c([N+](=O)[O-])c1 [TCMDC-125154] is -60.53%

The recorded % Inhibition for O=C(/C=C/c1ccc(Cl)c(Cl)c1)NC1CCC(CN2CCC(c3coc4ccccc34)CC2)CC1 (centres unmarked) [TCMDC-140260] is -37.97%

The recorded % Inhibition for COc1ccc2nccc([C@@H](O)CN3CCC(NCCc4c[nH]c5ccccc45)CC3)c2c1 [TCMDC-140938] is 7.162%

The recorded % Inhibition for CC1(C)C2C=C(CN3CCC(NC(=O)Nc4ccc(Cl)c(Cl)c4)CC3)C1CC2 (centres unmarked) [TCMDC-135871] is 38.53%

The recorded % Inhibition for O=C(CSc1nc2ccc([N+](=O)[O-])cc2s1)Nc1ccccc1-c1ccccc1 [TCMDC-124341] is 43.04%

The recorded % Inhibition for CCCc1cc(OC)c(CC2c3cccc(O)c3CCN2C)cc1OC (centres unmarked) [TCMDC-137435] is 12.33%

The recorded % Inhibition for Cn1cncc1CCN(Cc1ccc(-c2ccc(C(F)(F)F)cc2)cc1)C(=O)Cn1c(SCc2cccc(F)c2F)cc(=O)c2ccccc21 [TCMDC-141451] is 112.4%

The recorded % Inhibition for O=c1cc(NCCCNCc2ccc(Cl)c(Cl)c2)[nH]c2ccc(Cl)cc12 [TCMDC-139400] is 23.89%

The recorded % Inhibition for CCCc1cc(Cc2cnc(N)nc2N)cc(CCC)c1O [TCMDC-137695] is -57.47%

The recorded % Inhibition for CC1CC(C)CN(S(=O)(=O)c2cc(C(=O)Nc3cccc([N+](=O)[O-])c3)ccc2Br)C1 (centres unmarked) [TCMDC-124626] is -10.68%

The recorded % Inhibition for CC(C)C[C@H](NC(=O)c1ccc(F)cc1)C(=O)N[C@H](/C=N/NC(=O)c1ccccc1)CCc1ccccc1 [TCMDC-135680] is -1.54%

The recorded % Inhibition for CN(CCc1ccccc1)c1ncc(-c2cccc(CNCCC3CCCN3C)c2)cn1 (centres unmarked) [TCMDC-133143] is 92.22%

The recorded % Inhibition for CN1CCCC1CCNCc1cccc(-c2cnc(N(C)C3CCCCC3)nc2)c1 (centres unmarked) [TCMDC-133141] is 75.89%

The recorded % Inhibition for c1ccc2c(c1)CN(Cc1ccsc1)CC1(CCN(Cc3c[nH]c4cnccc34)CC1)O2 [TCMDC-133374] is -8.367%

The recorded % Inhibition for CCOc1cc(C)ccc1C1CCN(CCCCNC(=O)c2nc(-c3ccc(C(F)(F)F)cc3)[nH]c2C)CC1 [TCMDC-138585] is -10.92%

The recorded % Inhibition for COc1cc2c(c(OC)c1[N+](=O)[O-])C=CC1(O2)N(C)c2ccc([N+](=O)[O-])cc2C1(C)C (centres unmarked) [TCMDC-124133] is 52.65%

The recorded % Inhibition for CCCOc1ccc(OCCCON2C(N)=NC(N)=NC2(C)C)cc1 [TCMDC-131737] is 9.517%

The recorded % Inhibition for CC(C)C(C)(C#N)NC(=O)CSc1nc2ccc([N+](=O)[O-])cc2s1 (centres unmarked) [TCMDC-123610] is 79.56%

The recorded % Inhibition for COc1ccc(Nc2ncc3c(-c4cccc(NC(=O)c5ccc(N)cc5)c4)c[nH]c3n2)cc1OC [TCMDC-135250] is -78.65%

The recorded % Inhibition for O=C(Cn1c(SCc2cccc(F)c2F)cc(=O)c2ccccc21)N(CCc1cnc[nH]1)Cc1ccc(-c2ccc(C(F)(F)F)cc2)cc1 [TCMDC-141484] is 44.33%

The recorded % Inhibition for CCC/C=C/c1c(CNCCCNc2cc(=O)c3ccccc3[nH]2)sc(CC)c1Br [TCMDC-140971] is 58.98%

The recorded % Inhibition for CCc1cc(Br)c(CNCCCNc2cc(=O)c3ccccc3[nH]2)s1 [TCMDC-140745] is -24.29%

The recorded % Inhibition for NC1=NC2(CCCCC2)N(OCCCCCCCCNc2nc(N)nc(N)n2)C(N)=N1 [TCMDC-140517] is 6.685%

The recorded % Inhibition for Cc1cccc2c(C3CCN(CC4CCC(NC(=O)/C=C/c5ccc(Cl)c(Cl)c5)CC4)CC3)c[nH]c12 (centres unmarked) [TCMDC-139639] is 73.81%

The recorded % Inhibition for Cc1cccc2[nH]cc(C3CCN(CC4CCC(NC(=O)/C=C/c5ccc(Cl)c(Cl)c5)CC4)CC3)c12 (centres unmarked) [TCMDC-140137] is 108%

The recorded % Inhibition for O=C(Nc1ccc(-c2cccc(-c3nc4ccc(F)cc4[nH]3)c2)cc1)Nc1ccc(Cl)c(Cl)c1 [TCMDC-133282] is -9.249%

The recorded % Inhibition for COc1ccc(Nc2ncc3c(-c4cccc(NC(=O)Cc5cccc(O)c5)c4)c[nH]c3n2)cc1OC [TCMDC-135247] is -20.67%

The recorded % Inhibition for COc1ccc(N2C(=O)C3C(C2=O)C2(C)c4ccccc4C3(C)c3ccccc32)c([N+](=O)[O-])c1 (centres unmarked) [TCMDC-125621] is 9.788%
